test system: K86415-001-R-J1-PDC complex spheroids, viability; assay: Anticancer human tumor K86415-001-R-J1-PDC patient-derived lung adenocarcinoma cell line growth inhibition [RAS]; conditions: second compound 0.03 µM; first compound 3.16 µM; active means viability on the fitted dose curve at most 10% of control; inactive means the rest;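 further: spheroids exposed to agents for seven days before readout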
Give one outcome, nothing more. List: t (active), f (inactive)

Use these answered entries as a reference point.
>  <compound>
Cc1nc(N2CCC3(CC2)COC(C)C3N)c(CO)nc1Sc1ccnc(N)c1Cl (stereo unspecified) + CCn1c(-c2cc(N3CCN(C)CC3)cnc2C(C)OC)c2c3cc(ccc31)-c1csc(n1)CC(NC(=O)C1CC1C)C(=O)N1CCCC(N1)C(=O)OCC(C)(C)C2

>  <cat>
t

$$$$
>  <compound>
C[C@@H](NC(=O)c1ncnc(N)c1Cl)c1ncc(C(=O)Nc2cc(C(F)(F)F)c(Cl)cn2)s1 + CCn1c(-c2cc(N3CCN(C)CC3)cnc2C(C)OC)c2c3cc(ccc31)-c1csc(n1)CC(NC(=O)C1CC1C)C(=O)N1CCCC(N1)C(=O)OCC(C)(C)C2

>  <cat>
t

$$$$
>  <compound>
C[C@@H](NC(=O)c1ncnc(N)c1Cl)c1ncc(C(=O)Nc2cc(C(F)(F)F)c(Cl)cn2)s1 + CCn1c(-c2cccnc2C(C)OC)c2c3cc(ccc31)N1CCOC(CC(NC(=O)C(C(C)C)N(C)C(=O)C3(F)CCN(C(=O)C#CC(C)(C)N(C)C)CC3)C(=O)N3CCCC(N3)C(=O)OCC(C)(C)C2)C1

>  <cat>
f

$$$$
>  <compound>
CCC(CC)c1cc(NC2CCC(N)C2)n2nccc2n1 (stereo unspecified) + CCn1c(-c2cc(N3CCN(C)CC3)cnc2C(C)OC)c2c3cc(ccc31)-c1csc(n1)CC(NC(=O)C1CC1C)C(=O)N1CCCC(N1)C(=O)OCC(C)(C)C2

>  <cat>
t

$$$$
>  <compound>
CC1(O)CCCC1n1c(=O)c(C(F)F)cc2cnc(NC3CCN(S(C)(=O)=O)CC3)nc21 (stereo unspecified) + CCn1c(-c2cc(N3CCN(C)CC3)cnc2C(C)OC)c2c3cc(ccc31)-c1csc(n1)CC(NC(=O)C1CC1C)C(=O)N1CCCC(N1)C(=O)OCC(C)(C)C2

>  <cat>
t

$$$$
>  <compound>
CC(=O)OC12COC1CC(O)C1(C)C(=O)C(O)C3=C(C)C(OC(=O)C(O)C(NC(=O)OC(C)(C)C)c4ccccc4)CC(O)(C(OC(=O)c4ccccc4)C21)C3(C)C (stereo unspecified) + CCn1c(-c2cccnc2C(C)OC)c2c3cc(ccc31)N1CCOC(CC(NC(=O)C(C(C)C)N(C)C(=O)C3(F)CCN(C(=O)C#CC(C)(C)N(C)C)CC3)C(=O)N3CCCC(N3)C(=O)OCC(C)(C)C2)C1

>  <cat>
f

$$$$
>  <compound>
CC1(O)CCCC1n1c(=O)c(C(F)F)cc2cnc(NC3CCN(S(C)(=O)=O)CC3)nc21 (stereo unspecified) + CCn1c(-c2cccnc2C(C)OC)c2c3cc(ccc31)N1CCOC(CC(NC(=O)C(C(C)C)N(C)C(=O)C3(F)CCN(C(=O)C#CC(C)(C)N(C)C)CC3)C(=O)N3CCCC(N3)C(=O)OCC(C)(C)C2)C1

>  <cat>
f

$$$$
>  <compound>
CC(Nc1ccc2c(c1)OCCn1cc(N3C(=O)OCC3C(F)F)nc1-2)C(N)=O (stereo unspecified) + CCn1c(-c2cc(N3CCN(C)CC3)cnc2C(C)OC)c2c3cc(ccc31)-c1csc(n1)CC(NC(=O)C1CC1C)C(=O)N1CCCC(N1)C(=O)OCC(C)(C)C2

>  <cat>
t

$$$$

QUERY: In this assay, the call recorded for NC1c2ccccc2OC12CCN(c1cnc3c(N4CCCc5ncccc54)n[nH]c3n1)CC2 (stereo unspecified) + CCn1c(-c2cccnc2C(C)OC)c2c3cc(ccc31)N1CCOC(CC(NC(=O)C(C(C)C)N(C)C(=O)C3(F)CCN(C(=O)C#CC(C)(C)N(C)C)CC3)C(=O)N3CCCC(N3)C(=O)OCC(C)(C)C2)C1 was what?
RESULT: t

QUERY: Called result for CC(C)NCC(C(=O)N1CCN(c2ncnc3c2C(C)CC3O)CC1)c1ccc(Cl)cc1 (stereo unspecified) + CCn1c(-c2cccnc2C(C)OC)c2c3cc(ccc31)N1CCOC(CC(NC(=O)C(C(C)C)N(C)C(=O)C3(F)CCN(C(=O)C#CC(C)(C)N(C)C)CC3)C(=O)N3CCCC(N3)C(=O)OCC(C)(C)C2)C1
RESULT: t

QUERY: Hello, I am checking results. What call was entered for Cc1nc(N2CCC3(CC2)COC(C)C3N)c(CO)nc1Sc1ccnc(N)c1Cl (stereo unspecified) + CCn1c(-c2cccnc2C(C)OC)c2c3cc(ccc31)N1CCOC(CC(NC(=O)C(C(C)C)N(C)C(=O)C3(F)CCN(C(=O)C#CC(C)(C)N(C)C)CC3)C(=O)N3CCCC(N3)C(=O)OCC(C)(C)C2)C1 ?
RESULT: t

QUERY: Tell me the recorded outcome of this test for CC(Nc1ccc2c(c1)OCCn1cc(N3C(=O)OCC3C(F)F)nc1-2)C(N)=O (stereo unspecified) + CCn1c(-c2cccnc2C(C)OC)c2c3cc(ccc31)N1CCOC(CC(NC(=O)C(C(C)C)N(C)C(=O)C3(F)CCN(C(=O)C#CC(C)(C)N(C)C)CC3)C(=O)N3CCCC(N3)C(=O)OCC(C)(C)C2)C1 .
RESULT: t

QUERY: What did the test return for CCC(CC)c1cc(NC2CCC(N)C2)n2nccc2n1 (stereo unspecified) + CCn1c(-c2cccnc2C(C)OC)c2c3cc(ccc31)N1CCOC(CC(NC(=O)C(C(C)C)N(C)C(=O)C3(F)CCN(C(=O)C#CC(C)(C)N(C)C)CC3)C(=O)N3CCCC(N3)C(=O)OCC(C)(C)C2)C1 ?
RESULT: t
